Exercise: state measured kon for each of the binders provided.
Target: T1, Human CD19-his protein (human, UniProt P15391 20-291)
T1 construct: bought protein; also called recombinant human CD19-His; CD19 full-length protein; not shown: His tag
T1 sequence (looked up): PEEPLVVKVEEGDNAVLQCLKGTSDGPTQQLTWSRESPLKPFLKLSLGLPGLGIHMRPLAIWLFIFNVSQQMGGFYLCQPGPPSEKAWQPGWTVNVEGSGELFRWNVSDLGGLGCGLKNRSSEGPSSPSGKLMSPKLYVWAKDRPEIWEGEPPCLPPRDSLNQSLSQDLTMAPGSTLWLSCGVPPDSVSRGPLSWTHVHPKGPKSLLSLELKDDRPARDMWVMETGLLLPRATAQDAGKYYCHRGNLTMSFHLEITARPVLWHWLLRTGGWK
Assay: SPR Biacore, Ab captured on Protein A, CD19-His analyte
Enter your answer as a number in M⁻¹ s⁻¹; do not include the unit.

Q) Name the recorded kon for F3.23.10 (antibody, human IgG1, V domains shown, human-murine chimeric antibody, human IgG1 constant) VH: EFQLQQSGPELVKPGASVKISCKASDYSFTDYNMNWVKQSNGASLEWIGIINPNFGSTSYNQKFKGKATLTVDQSSSTAFMQLNSLTSEDSAVYYCARSEYYGSSGFAYWGQGTLVTVSA VL: DVVVTQTPLSLPVSFGDQVSISCRSSQSLVNSYGNTYLSWYLHKPGQSPQLLIYGISNRFSGVPDRFSGSGSGTDFTLKITTIKPEDLGMYYCLQGTHQPWTFGGGTKLEIK .
A) 35400

Q) Name the recorded kon for F5.8.6 (antibody, human IgG1, V domains shown, human-murine chimeric antibody, human IgG1 constant) VH: QVQLHQPGAELVMPGASVTLSCKASGYTFTSYWMHWVKQRPGQGLEWIGEIDPSDSYTTYDQKFKGKATLTVDKFSSTAYMQFSSLTSEDSAVYYCARLTGNHLDYWGQGTTLTVSS VL: DIVMTQSHKFMSSSVGDRVSITCKASQDVSPAVAWYQQKPGQSPKLLIYSTSYRNTGVPDRFTGSGSGTDFTFTISSVQAEDLAVYYCQQHYSIPLTFGAGTKLELK .
A) 181000

Q) Name the recorded kon for F6.2.9 (antibody, human IgG1, V domains shown, human-murine chimeric antibody, human IgG1 constant) VH: QVQLQQSGAELVKPGASVKISCKASGYAFSSYWMNWVKQRPGKGLEWIGQIYPGDGDTNYNGKFKGKATLTADKSSSTGYMQLSSLTSEDSAVYFCARSRITSVVDWYFDVWGTGTTVTVSS VL: QIVLSQSPAILSASPGEKVTMTCRASSSVSYMHWYQQKPGSSPKPWIYATSNLASGVPARFSGSGSGTSYSLTISRVEAEDAATYYCQQWSSNPPTFGAGTKLELK .
A) 152000
